target desc: T1, CD71 apical domain (human, UniProt P02786 189-383, limits assumed)
T1 construct: domain: apical domain
T1 sequence (P02786 189-383 limits assumed): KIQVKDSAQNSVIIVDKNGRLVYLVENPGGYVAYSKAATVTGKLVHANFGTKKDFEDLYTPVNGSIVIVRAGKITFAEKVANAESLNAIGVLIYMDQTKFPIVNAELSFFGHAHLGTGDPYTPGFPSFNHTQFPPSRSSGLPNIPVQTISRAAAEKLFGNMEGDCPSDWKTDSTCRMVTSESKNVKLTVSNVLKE
assay comment: solution ELISA screen (luminescence)
measure name: RLU (RLU)

1: SEQ ID NO 209 (designed binder, not shown: small tags and cut ends, also called ABX1198) MLPAPKNLVVSRVTEDSARLSWTAPDAAFDSFYIAYAEPRPDGEAILLQVPGSCRSYDLTGLKPGTEYSVLIHGVKGGLLSSPLTAIFTT
2: SEQ ID NO 212 (designed binder, not shown: small tags and cut ends) MLPAPKNLVVSRVTEDSARLSWTAPDAAFDSFYIAYAEPRPDGEAIWLAVPGSERSYDLTGLKPGTEYSVLIHGVKGGLLSSPLHAQFTT
Given 1 and 2 , report the one with the higher recorded RLU. Bench note: the answer is the label of the chosen record.
1
